ASSAY TEXT: Biodistribution after day 6 in mouse liver
Format: ADME, organism-based
MEASURED ENDPOINT: concentration at 6 day (ng/g)
Give the number; ng/g is assumed, so skip it.

Recorded concentration at 6 day of CCc1c(CC)c2cc3nc(cc4[nH]c(c(C)c4CC)c4[nH]c(cc5nc(cc1[nH]2)C(CCC(=O)NC1C(O)OC(CO)C(O)C1O)=C5C)c(CC)c4C)C(C)=C3CCC(=O)NC1C(O)OC(CO)C(O)C1O (stereo unspecified) , please.
370

Similarly, CCc1c(CC)c2cc3nc(cc4[nH]c(c(C)c4CC)c4[nH]c(cc5nc(cc1[nH]2)C(CCC(=O)NCCOCCOCCO)=C5C)c(CC)c4C)C(C)=C3CCC(=O)NCCOCCOCCO ?
16000

Similarly, CCc1c(CC)c2cc3nc(cc4[nH]c(c(C)c4CC)c4[nH]c(cc5nc(cc1[nH]2)C(CCC(=O)NCCN(CCN)CCN)=C5C)c(CC)c4C)C(C)=C3CCC(=O)NCCN(CCN)CCN ?
10000

Similarly, CCC1=C(CC)c2cc3[nH]c(cc4[nH]c(c(C)c4CC)c4[nH]c(cc5nc(cc1n2)C(CCC(=O)NCCOCCOCCN)=C5C)c(CC)c4C)c(C)c3CCC(=O)NCCOCCOCCN ?
4200

Similarly, C=CC1=C(C)c2cc3nc(cc4[nH]c(cc5[nH]c(cc1n2)c(C)c5CCC(=O)NC1C(O)OC(CO)C(O)C1O)c(CCC(=O)NC1C(O)OC(CO)C(O)C1O)c4C)C(C=C)=C3C (stereo unspecified) [PORPHYRIN] ?
1320

Similarly, CCc1c(CC)c2cc3nc(cc4[nH]c(c(C)c4CC)c4[nH]c(cc5nc(cc1[nH]2)C(CCC(=O)N(CCO)CCO)=C5C)c(CC)c4C)C(C)=C3CCC(=O)N(CCO)CCO [SAPPHYRIN] ?
1200

* * *

ASSAY TEXT: Biodistribution after day 6 in mouse heart
Format: ADME, organism-based
Define the label as t when concentration at 6 day is strictly less than 5000 ng/g and as f in all remaining cases.

Report whether reported concentration at 6 day is lower than 5000 ng/g (strictly) for CCc1c(CC)c2cc3nc(cc4[nH]c(c(C)c4CC)c4[nH]c(cc5nc(cc1[nH]2)C(CCC(=O)NCCN(CCN)CCN)=C5C)c(CC)c4C)C(C)=C3CCC(=O)NCCN(CCN)CCN
f

Similarly, CCc1c(CC)c2cc3nc(cc4[nH]c(c(C)c4CC)c4[nH]c(cc5nc(cc1[nH]2)C(CCC(=O)NCCOCCOCCO)=C5C)c(CC)c4C)C(C)=C3CCC(=O)NCCOCCOCCO ?
t

Similarly, CCC1=C(CC)c2cc3[nH]c(cc4[nH]c(c(C)c4CC)c4[nH]c(cc5nc(cc1n2)C(CCC(=O)NCCOCCOCCN)=C5C)c(CC)c4C)c(C)c3CCC(=O)NCCOCCOCCN ?
f

Similarly, C=CC1=C(C)c2cc3nc(cc4[nH]c(cc5[nH]c(cc1n2)c(C)c5CCC(=O)NC1C(O)OC(CO)C(O)C1O)c(CCC(=O)NC1C(O)OC(CO)C(O)C1O)c4C)C(C=C)=C3C (stereo unspecified) [PORPHYRIN] ?
t

Similarly, CCc1c(CC)c2cc3nc(cc4[nH]c(c(C)c4CC)c4[nH]c(cc5nc(cc1[nH]2)C(CCC(=O)N(CCO)CCO)=C5C)c(CC)c4C)C(C)=C3CCC(=O)N(CCO)CCO [SAPPHYRIN] ?
t

Similarly, CCc1c(CC)c2cc3nc(cc4[nH]c(c(C)c4CC)c4[nH]c(cc5nc(cc1[nH]2)C(CCC(=O)NC1C(O)OC(CO)C(O)C1O)=C5C)c(CC)c4C)C(C)=C3CCC(=O)NC1C(O)OC(CO)C(O)C1O (stereo unspecified) ?
f
